assayed.system: Menin-MLL1 (Homo sapiens, UniProt O00255)
Construct: Menin (2-610) isform2
Sequence (O00255 2-610): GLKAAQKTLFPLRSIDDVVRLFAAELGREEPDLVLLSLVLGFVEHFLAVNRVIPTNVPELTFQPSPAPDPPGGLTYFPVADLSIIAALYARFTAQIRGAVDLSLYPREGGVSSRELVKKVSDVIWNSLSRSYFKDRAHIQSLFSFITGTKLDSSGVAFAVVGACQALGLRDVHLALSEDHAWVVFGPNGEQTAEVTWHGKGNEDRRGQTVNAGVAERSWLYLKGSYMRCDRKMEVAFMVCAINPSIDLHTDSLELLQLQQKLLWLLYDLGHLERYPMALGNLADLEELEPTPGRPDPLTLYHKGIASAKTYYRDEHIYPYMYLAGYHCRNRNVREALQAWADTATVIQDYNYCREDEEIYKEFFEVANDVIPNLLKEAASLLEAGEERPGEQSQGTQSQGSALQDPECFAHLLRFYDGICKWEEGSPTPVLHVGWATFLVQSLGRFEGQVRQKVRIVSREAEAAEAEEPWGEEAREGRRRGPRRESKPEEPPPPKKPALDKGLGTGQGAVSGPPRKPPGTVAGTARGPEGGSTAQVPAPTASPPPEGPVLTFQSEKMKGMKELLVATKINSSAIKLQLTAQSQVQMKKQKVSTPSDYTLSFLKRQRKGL
assay.procedure: Menin-MLL1 inhibition assay (fluorescence polarization, Menin protein + FAM-MLL peptide)
test.context: Menin (2-610) isoform 2, FAM-labelled MLL peptide, mP readout; read-out: Biochemical assay Menin-MLL1 IC50
Label key: yes means IC50 under 4 nM; no means IC50 of 4 nM or more.

>  <compound>
O=C([C@H]1NC[C@@H]2C[C@@H]21)N1CCC2(CC1)CN(c1ncnnc1Oc1ccc(F)cc1-c1cncnc1C1CC1)C2 [Example 80]

>  <label>
no

$$$$
>  <compound>
CC(C)N(C(=O)c1cc(F)ccc1Oc1nncnc1N1CC2(CCN(C(=O)[C@H]3NCC[C@@H]3C)CC2)C1)C(C)C [Example 64]

>  <label>
yes

$$$$
>  <compound>
CCN(C(=O)c1cc(F)ccc1Oc1cncnc1N1CC2(CCN(C(=O)[C@@H]3C[C@H](NS(C)(=O)=O)CN3)CC2)C1)C(C)C [Example 16]

>  <label>
no

$$$$

// query Identify whether the compound O=C([C@H]1NC[C@@H]2CCC[C@@H]21)N1CCC2(CC1)CN(c1ncnnc1Oc1ccc(F)cc1-c1cccnc1C1CC1)C2 [Example 103] records IC50 below 4 nM.
// result no

// query Identify whether the compound CC(C)n1ncc(Cl)c1-c1cc(F)ccc1Oc1cncnc1N1CC2(CCN(C(=O)[C@@H]3C[C@@H](F)CN3)CC2)C1 [Example 58] records IC50 below 4 nM.
// result yes

// query Identify whether the compound CCN(C(=O)c1cc(F)ccc1Oc1cncnc1N1CC2(CCN(C(=O)[C@@H]3CCCN3)CC2)C1)C(C)C [Example 21] records IC50 below 4 nM.
// result no

// query Identify whether the compound CCN(C(=O)c1cc(F)ccc1Oc1cncnc1N1CC2(CCN(C(=O)[C@@]3(C)CCCN3)CC2)C1)C(C)C [Example 29] records IC50 below 4 nM.
// result no

###

Assignment: determine reported pIC50 for the given compounds.
Test system: MV-4-11 cells
assay.procedure: Cell proliferation assay (CellTiter-Glo), MV-4-11
Format: cell-based, human
test.context: Homo sapiens, MV4-11, 96 h; MV-4-11 (MLL-AF4), 4 days incubation; read-out: Cell antiproliferation assay MV-4-11 IC50
Numbers only, as −log10 of the molar value.

Example results:
>  <compound>
CC(C)n1ncc(Cl)c1-c1cc(F)ccc1Oc1cncnc1N1CC2(CCN(C(=O)[C@@H]3C[C@@H](F)CN3)CC2)C1

>  <assayed.system>
MV-4-11 cells

>  <pIC50>
7.57

$$$$
>  <compound>
CCN(C(=O)c1cc(F)ccc1Oc1nncnc1N1CC2(CCN(C(=O)[C@H]3NC[C@@H]4CCC[C@@H]43)CC2)C1)C(C)C

>  <assayed.system>
MV-4-11 cells

>  <pIC50>
8.25

$$$$
>  <compound>
CCN(C(=O)c1cc(F)ccc1Oc1cncnc1N1CCC2(CC1)CN(C(=O)[C@@H]1C[C@@H](F)CN1)C2)C(C)C

>  <assayed.system>
MV-4-11 cells

>  <pIC50>
6.31

$$$$
>  <compound>
CC[C@@H]1[C@@H](C(=O)N2CCC3(CC2)CN(c2ncnnc2Oc2ccc(F)cc2C(=O)N(CC)C(C)C)C3)NC[C@@H]1F

>  <assayed.system>
MV-4-11 cells

>  <pIC50>
7.12

$$$$
>  <compound>
CCN(C(=O)c1cc(F)ccc1Oc1cncnc1N1CC2(CCN(C(=O)[C@@H]3CC[C@@H](F)CN3)CC2)C1)C(C)C

>  <assayed.system>
MV-4-11 cells

>  <pIC50>
6.63

$$$$

Proceeding to the next compound to report its pIC50.
// query Tell me pIC50 reported for CCN(C(=O)c1cc(F)ccc1Oc1cncnc1N1CC2(CCN(C(=O)[C@@H]3C[C@]4(CO)CC4N3)CC2)C1)C(C)C (stereo partly drawn)
// result 6.89
